B1: GMCL1 (parent)
chain: RPDTGDDAAGHGFCYCAGSHKRKR

Variants of: B1
Procedure text: protein stability index of a GFP-peptide fusion (GPS, HEK-293T) (PSI 1-6); higher = more stable;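 note: lentivirally expressed fusions sorted by FACS into six bins by GFP to DsRed ratio, PSI derived from sequencing read proportions per bin multiplied by bin number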
Condition context: c terminus: a fixed tail appended
Catalogue of protein stability index values
Provide a numeric answer; units are not to be included.

>>> print(df.to_string())
           residue_sequence   val
0  RPDTGDLAAGHGFCYCAGSHKRKR  3.03

Now for another entry.
Prompt: Supply protein stability index value. Item: "RPDTGDDAAGHGFCYCAGSHKRFR"
Completion: 1.9

Every entry's value here was drawn from the supplement of paper PMC10567573.
